System: HeLa Kyoto
Experiment: melting temperature (median over replicates), in situ; higher = more thermally stable
Conditions: cell cycle stage: G1/S
measured-parameter: melting temperature (°C)
Kindly provide the numeric value in °C only, without the unit symbol.

Worked cases, melting temperature given:
residues: MDPARKAGAQAMIWTAGWLLLLLLRGGAQALECYSCVQKADDGCSPNKMKTVKCAPGVDVCTEAVGAVETIHGQFSLAVRGCGSGLPGKNDRGLDLHGLLAFIQLQQCAQDRCNAKLNLTSRALDPAGNESAYPPNGVECYSCVGLSREACQGTSPPVVSCYNASDHVYKGCFDGNVTLTAANVTVSLPVRGCVQDEFCTRDGVTGPGFTLSGSCCQGSRCNSDLRNKTYFSPRIPPLVRLPPPEPTTVASTTSVTTSTSAPVRPTSTTKPMPAPTSQTPRQGVEHEASRDEEPRLTGGAAGHQDRSNSGQYPAKGGPQQPHNKGCVAPTAGLAALLLAVAAGVLL [LYPD3]
measured-parameter: melting temperature
observed-value: 56.9
--
residues: MAERGELDLTGAKQNTGVWLVKVPKYLSQQWAKASGRGEVGKLRIAKTQGRTEVSFTLNEDLANIHDIGGKPASVSAPREHPFVLQSVGGQTLTVFTESSSDKLSLEGIVVQRAECRPAASENYMRLKRLQIEESSKPVRLSQQLDKVVTTNYKPVANHQYNIEYERKKKEDGKRARADKQHVLDMLFSAFEKHQYYNLKDLVDITKQPVVYLKEILKEIGVQNVKGIHKNTWELKPEYRHYQGEEKSD [GTF2F2]
measured-parameter: melting temperature
observed-value: 52.6
--
residues: MGGFFSSIFSSLFGTREMRILILGLDGAGKTTILYRLQVGEVVTTIPTIGFNVETVTYKNLKFQVWDLGGQTSIRPYWRCYYSNTDAVIYVVDSCDRDRIGISKSELVAMLEEEELRKAILVVFANKQDMEQAMTSSEMANSLGLPALKDRKWQIFKTSATKGTGLDEAMEWLVETLKSRQ [ARL1]
measured-parameter: melting temperature
observed-value: 50.3
--
residues: MGSRASTLLRDEELEEIKKETGFSHSQITRLYSRFTSLDKGENGTLSREDFQRIPELAINPLGDRIINAFFPEGEDQVNFRGFMRTLAHFRPIEDNEKSKDVNGPEPLNSRSNKLHFAFRLYDLDKDEKISRDELLQVLRMMVGVNISDEQLGSIADRTIQEADQDGDSAISFTEFVKVLEKVDVEQKMSIRFLH [CHP1]
measured-parameter: melting temperature
observed-value: 51.8
--
residues: MAAARPSLGRVLPGSSVLFLCDMQEKFRHNIAYFPQIVSVAARMLKVARLLEVPVMLTEQYPQGLGPTVPELGTEGLRPLAKTCFSMVPALQQELDSRPQLRSVLLCGIEAQACILNTTLDLLDRGLQVHVVVDACSSRSQVDRLVALARMRQSGAFLSTSEGLILQLVGDAVHPQFKEIQKLIKEPAPDSGLLGLFQGQNSLLH [ISOC2]
measured-parameter: melting temperature
observed-value: 55.1

# evaluate next
Incoming: Recorded melting temperature for MDKQNSQMNASHPETNLPVGYPPQYPPTAFQGPPGYSGYPGPQVSYPPPPAGHSGPGPAGFPVPNQPVYNQPVYNQPVGAAGVPWMPAPQPPLNCPPGLEYLSQIDQILIHQQIELLEVLTGFETNNKYEIKNSFGQRVYFAAEDTDCCTRNCCGPSRPFTLRIIDNMGQEVITLERPLRCSSCCCPCCLQEIEIQAPPGVPIGYVIQTWHPCLPKFTIQNEKREDVLKISGPCVVCSCCGDVDFEIKSLDEQCVVGKISKHWTGILREAFTDADNFGIQFPLDLDVKMKAVMIGACFLIDFMFFESTGSQEQKSGVW [PLSCR1] , please?
Outgoing: 57.7

====

Test system: HeLa Kyoto
Assay: melting temperature (median over replicates), in situ; higher = more thermally stable
Conditions: cell cycle stage: mitosis
measured-parameter: melting temperature (°C)
Field format: number, assumed °C, no unit text.

The examples below pair each entry with its known result.
substance: MAGSVADSDAVVKLDDGHLNNSLSSPVQADVYFPRLIVPFCGHIKGGMRPGKKVLVMGIVDLNPESFAISLTCGDSEDPPADVAIELKAVFTDRQLLRNSCISGERGEEQSAIPYFPFIPDQPFRVEILCEHPRFRVFVDGHQLFDFYHRIQTLSAIDTIKINGDLQITKLG [LGALSL]
measurement-target: HeLa Kyoto
melting temperature (°C): 54
//
substance: CAMSAP1
measurement-target: HeLa Kyoto
melting temperature (°C): 50.2
//
substance: MNGRVDYLVTEEEINLTRGPSGLGFNIVGGTDQQYVSNDSGIYVSRIKENGAAALDGRLQEGDKILSVNGQDLKNLLHQDAVDLFRNAGYAVSLRVQHRLQVQNGPIGHRGEGDPSGIPIFMVLVPVFALTMVAAWAFMRYRQQL [SYNJ2BP]
measurement-target: HeLa Kyoto
melting temperature (°C): 51.6
//
substance: MVELMFPLLLLLLPFLLYMAAPQIRKMLSSGVCTSTVQLPGKVVVVTGANTGIGKETAKELAQRGARVYLACRDVEKGELVAKEIQTTTGNQQVLVRKLDLSDTKSIRAFAKGFLAEEKHLHVLINNAGVMMCPYSKTADGFEMHIGVNHLGHFLLTHLLLEKLKESAPSRIVNVSSLAHHLGRIHFHNLQGEKFYNAGLAYCHSKLANILFTQELARRLKGSGVTTYSVHPGTVQSELVRHSSFMRWMWWLFSFFIKTPQQGAQTSLHCALTEGLEILSGNHFSDCHVAWVSAQARNETIARRLWDVSCDLLGLPID [RDH11]
measurement-target: HeLa Kyoto
melting temperature (°C): 50.2
//
substance: MYPESTTGSPARLSLRQTGSPGMIYSTRYGSPKRQLQFYRNLGKSGLRVSCLGLGTWVTFGGQITDEMAEQLMTLAYDNGINLFDTAEVYAAGKAEVVLGNIIKKKGWRRSSLVITTKIFWGGKAETERGLSRKHIIEGLKASLERLQLEYVDVVFANRPDPNTPMEETVRAMTHVINQGMAMYWGTSRWSSMEIMEAYSVARQFNLTPPICEQAEYHMFQREKVEVQLPELFHKIGVGAMTWSPLACGIVSGKYDSGIPPYSRASLKGYQWLKDKILSEEGRRQQAKLKELQAIAERLGCTLPQLAIAWCLRNEGVSSVLLGASNADQLMENIGAIQVLPKLSSSIIHEIDSILGNKPYSKKDYRS [KCNAB2]
measurement-target: HeLa Kyoto
melting temperature (°C): 58.8
//
substance: MSEVSCKKRDDYLEWPEYFMAVAFLSAQRSKDPNSQVGACIVNSENKIVGIGYNGMPNGCSDDVLPWRRTAENKLDTKYPYVCHAELNAIMNKNSTDVKGCSMYVALFPCNECAKLIIQAGIKEVIFMSDKYHDSDEATAARLLFNMAGVTFRKFIPKCSKIVIDFDSINSRPSQKLQ [DCTD]
measurement-target: HeLa Kyoto
melting temperature (°C): 58.5
//
substance: MPKAKGKTRRQKFGYSVNRKRLNRNARRKAAPRIECSHIRHAWDHAKSVRQNLAEMGLAVDPNRAVPLRKRKVKAMEVDIEERPKELVRKPYVLNDLEAEASLPEKKGNTLSRDLIDYVRYMVENHGEDYKAMARDEKNYYQDTPKQIRSKINVYKRFYPAEWQDFLDSLQKRKMEVE [NOP16]
measurement-target: HeLa Kyoto
melting temperature (°C): 54.2
//
substance: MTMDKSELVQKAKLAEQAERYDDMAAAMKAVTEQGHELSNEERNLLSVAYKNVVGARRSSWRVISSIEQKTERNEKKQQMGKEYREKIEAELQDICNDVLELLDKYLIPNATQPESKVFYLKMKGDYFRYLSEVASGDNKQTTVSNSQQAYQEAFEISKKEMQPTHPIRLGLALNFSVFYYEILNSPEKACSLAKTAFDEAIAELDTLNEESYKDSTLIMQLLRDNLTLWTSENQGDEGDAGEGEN [YWHAB]
measurement-target: HeLa Kyoto
melting temperature (°C): 52.8
//
substance: MALRELKVCLLGDTGVGKSSIVWRFVEDSFDPNINPTIGASFMTKTVQYQNELHKFLIWDTAGQERFRALAPMYYRGSAAAIIVYDITKEETFSTLKNWVKELRQHGPPNIVVAIAGNKCDLIDVREVMERDAKDYADSIHAIFVETSAKNAININELFIEISRRIPSTDANLPSGGKGFKLRRQPSEPKRSCC [RAB22A]
measurement-target: HeLa Kyoto
melting temperature (°C): 53.7
//
substance: MAAAAAAGEARRVLVYGGRGALGSRCVQAFRARNWWVASVDVVENEEASASIIVKMTDSFTEQADQVTAEVGKLLGEEKVDAILCVAGGWAGGNAKSKSLFKNCDLMWKQSIWTSTISSHLATKHLKEGGLLTLAGAKAALDGTPGMIGYGMAKGAVHQLCQSLAGKNSGMPPGAAAIAVLPVTLDTPMNRKSMPEADFSSWTPLEFLVETFHDWITGKNRPSSGSLIQVVTTEGRTELTPAYF [QDPR]
measurement-target: HeLa Kyoto;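 also: HeLa Kyoto cells synchronized by double thymidine or nocodazole block, proteins quantified by TMT10plex mass spectrometry, three independent biological replicates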
melting temperature (°C): 55.5

Incoming: Fill in: melting temperature of MELSAVGERVFAAEALLKRRIRKGRMEYLVKWKGWSQKYSTWEPEENILDARLLAAFEEREREMELYGPKKRGPKPKTFLLKAQAKAKAKTYEFRSDSARGIRIPYPGRSPQDLASTSRAREGLRNMGLSPPASSTSTSSTCRAEAPRDRDRDRDRDRERDRERERERERERERERERERGTSRVDDKPSSPGDSSKKRGPKPRKELPDPSQRPLGEPSAGLGEYLKGRKLDDTPSGAGKFPAGHSVIQLARRQDSDLVQCGVTSPSSAEATGKLAVDTFPARVIKHRAAFLEAKGQGALDPNGTRVRHGSGPPSSGGGLYRDMGAQGGRPSLIARIPVARILGDPEEESWSPSLTNLEKVVVTDVTSNFLTVTIKESNTDQGFFKEKR [CBX8] is ___
Outgoing: 49.5

Incoming: Request: MASLDRVKVLVLGDSGVGKSSLVHLLCQNQVLGNPSWTVGCSVDVRVHDYKEGTPEEKTYYIELWDVGGSVGSASSVKSTRAVFYNSVNGIIFVHDLTNKKSSQNLRRWSLEALNRDLVPTGVLVTNGDYDQEQFADNQIPLLVIGTKLDQIHETKRHEVLTRTAFLAEDFNPEEINLDCTNPRYLAAGSSNAVKLSRFFDKVIEKRYFLREGNQIPGFPDRKRFGAGTLKSLHYD [RABL3]
Outgoing: 51.9
